Data origin, for the record: the METLIN SMRT retention time set (Domingo-Almenara et al. 2019)

assay: gradient 5% acetonitrile 3 min, to 50% in 2 min, to 85% in 15 min, held 3 min, 100 µL/min; settings: column: Zorbax Extend-C18 2.1 x 50 mm; eluents: water / acetonitrile, 0.1% formic acid
// classify: if (RP-LC retention time < 900 s) y else n

Decide: RP-LC retention time of O=C(N[C@@H]1CN(c2ncccn2)C[C@H]1CO)c1ccc2ccccc2n1 strictly below 900 s?
y

Decide: RP-LC retention time of CN(Cc1ccc(OC(F)(F)F)cc1)C1CCc2nnc(C3CCOCC3)n2CC1 (centres undefined) strictly below 900 s?
y

Decide: RP-LC retention time of CCOC(=O)c1c(C)[nH]c(C(=O)N2CCCC(C(=O)NCc3ccccc3F)C2)c1C (centres undefined) strictly below 900 s?
y

Decide: RP-LC retention time of COCCNC(=O)c1nc(N2CCSCC2)c2c(C)cc(C)nc2n1 strictly below 900 s?
y

Decide: RP-LC retention time of COc1ccc(-n2ccc(=O)c(-c3nc(-c4ccccc4OCc4ccccc4)no3)n2)cc1 strictly below 900 s?
n

Decide: RP-LC retention time of Cc1ccc(CNC(=O)C2CCCN(c3nnc4ccccn34)C2)o1 (centres undefined) strictly below 900 s?
y

Decide: RP-LC retention time of Cc1ccccc1Nc1c(-c2ccc(Cl)cc2)nc2ccc(Cl)cn12 strictly below 900 s?
n
